This collection of values is drawn from patent US9061981B2.

assay: Non-specific binding assessment across tissue-free inserts; type: in vitro ADME; settings: tissue-free Millipore Millicell culture plate inserts, tissue-free insert, DPBS, 120 minutes
Listed next: entries and their corresponding recovery at 120 min, 1 μM.
readout.type: recovery at 120 min, 1 μM (%)

1. Oc1ccc(C2(c3ccccc3F)CCC(F)(F)CC2)cc1 [Compound 8] :: 57
2. Oc1ccc(C2(c3cccc(F)c3Cl)CCCCC2)cc1 [Compound 623] :: 22
3. Oc1ccc(C2(c3ccccc3Cl)CCCCC2)cc1F [Compound 957] :: 18

---

molecular target: ERβ (Homo sapiens, UniProt Q92731); assay: Luciferase reporter gene assay (3*ERE) in HEK293 cells, ERβ; type: cell-based; parameters: expressed in transfected cells; host or cells: HEK293 cells, transient transfection
Sequence (Q92731 whole entry, species assumed): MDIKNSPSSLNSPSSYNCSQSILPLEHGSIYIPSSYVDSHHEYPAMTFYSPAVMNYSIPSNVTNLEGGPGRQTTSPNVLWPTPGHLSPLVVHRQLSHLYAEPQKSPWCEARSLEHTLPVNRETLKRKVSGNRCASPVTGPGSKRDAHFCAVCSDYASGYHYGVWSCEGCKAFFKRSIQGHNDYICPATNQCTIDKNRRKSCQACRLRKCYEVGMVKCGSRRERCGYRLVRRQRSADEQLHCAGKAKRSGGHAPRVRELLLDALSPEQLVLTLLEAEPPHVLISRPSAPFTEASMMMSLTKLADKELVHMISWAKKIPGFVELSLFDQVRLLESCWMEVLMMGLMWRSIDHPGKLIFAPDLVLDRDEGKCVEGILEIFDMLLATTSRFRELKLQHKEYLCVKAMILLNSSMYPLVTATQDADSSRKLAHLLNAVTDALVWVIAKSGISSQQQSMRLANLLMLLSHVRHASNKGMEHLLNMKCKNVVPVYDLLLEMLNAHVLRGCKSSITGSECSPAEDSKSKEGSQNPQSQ
pEC50: −log10 of the molar value.
readout.type: pEC50

1) Oc1ccc(C2(c3ccccc3Cl)CCC(F)(F)CC2)cc1 :: 9.20
2) Oc1ccc(C2(c3cccc(F)c3Cl)CCCCC2)cc1 :: 8.30
3) Oc1ccc(C2(c3ccccc3Cl)CCC(F)(F)CC2)cc1F :: 9.20
4) Oc1ccc(C2(c3ccccc3Cl)CCCCC2)cc1F :: 8.90
